Biological target: UniProt:P52333
Sequence (P52333 whole entry, species assumed): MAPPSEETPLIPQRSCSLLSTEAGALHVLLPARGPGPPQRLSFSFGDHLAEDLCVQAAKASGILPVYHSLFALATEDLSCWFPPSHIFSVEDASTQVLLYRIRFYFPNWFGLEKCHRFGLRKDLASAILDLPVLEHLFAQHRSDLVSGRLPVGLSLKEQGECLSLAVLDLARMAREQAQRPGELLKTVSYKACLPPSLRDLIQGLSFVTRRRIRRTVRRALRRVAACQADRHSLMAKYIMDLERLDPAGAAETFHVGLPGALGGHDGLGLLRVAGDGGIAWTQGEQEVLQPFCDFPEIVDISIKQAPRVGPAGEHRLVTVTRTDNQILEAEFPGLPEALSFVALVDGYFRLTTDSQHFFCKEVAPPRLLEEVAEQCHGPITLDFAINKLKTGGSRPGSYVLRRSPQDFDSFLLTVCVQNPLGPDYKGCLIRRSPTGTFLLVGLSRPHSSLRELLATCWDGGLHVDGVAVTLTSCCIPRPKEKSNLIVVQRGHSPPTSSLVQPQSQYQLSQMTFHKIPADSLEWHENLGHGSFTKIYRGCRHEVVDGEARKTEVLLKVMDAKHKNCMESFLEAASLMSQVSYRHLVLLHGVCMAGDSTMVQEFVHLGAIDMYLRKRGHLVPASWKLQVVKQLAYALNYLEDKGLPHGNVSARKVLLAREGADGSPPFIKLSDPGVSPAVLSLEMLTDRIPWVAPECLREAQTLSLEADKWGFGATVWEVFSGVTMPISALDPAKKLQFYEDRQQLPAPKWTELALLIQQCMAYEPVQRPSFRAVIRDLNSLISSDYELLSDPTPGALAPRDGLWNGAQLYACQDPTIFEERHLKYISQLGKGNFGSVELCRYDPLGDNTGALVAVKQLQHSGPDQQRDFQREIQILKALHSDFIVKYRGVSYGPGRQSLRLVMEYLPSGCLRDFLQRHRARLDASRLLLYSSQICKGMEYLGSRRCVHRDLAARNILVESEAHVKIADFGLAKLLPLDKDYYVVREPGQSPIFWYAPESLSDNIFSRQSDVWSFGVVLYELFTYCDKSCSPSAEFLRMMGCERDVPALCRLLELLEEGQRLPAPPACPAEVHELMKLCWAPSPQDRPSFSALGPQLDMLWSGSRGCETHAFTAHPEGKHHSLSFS
Assay: JAK Caliper Enzyme Assay at 1 mM ATP
Type: biochemical
measurementKind: IC50 (nM)
Reply with just the number (in nM).

>>> print(df.to_string())
                                givensmiles  measurementkind  reportedmeasurement
0  C=CC(=O)N1CCN(c2cnc3[nH]cc(C(=O)N[C@@H]4C[C@H]4C(F)(F)F)c3n2)C[C@@H]1CC(C)C             IC50                  731
1  C=CC(=O)N1CCC(Oc2cnc3[nH]cc(C(=O)NC[C@@]4(O)CCCC[C@H]4F)c3n2)CC1             IC50                  734

Now, please, on to the next compound.
Please report the recorded IC50 for C=CC(=O)N1C[C@H](CC)[C@H](Nc2cnc3[nH]cc(C(=O)NCC)c3n2)C1 .
857

// data source = patent US10703756B2
